System: Mus musculus
assay-procedure: Time of recovery of spontaneous movement (SMT) in seconds was measured after administration of 100 mg/kg orally in mice for the promotional effect on recovery from coma
Assay type: functional
condition-info: route oral
Recorded SMT for the following molecules
Only the number, expressed in s, is required.

CCC(C)c1cc(C)c2c(c1O)C(N)CC2.Cl (stereo not drawn) ... 23.3
CCc1cc(C)c2c(c1O)C(N)C(c1ccccc1)C2.Cl (stereo not drawn) ... 94.4
Cc1cc(C)c2c(c1O)C(N)C(c1ccccc1Cl)C2.Cl (stereo not drawn) ... 33.8
CCCCNC1CCc2c(C)cc(C)c(O)c21.Cl (stereo not drawn) ... 57.7

Input: Suppose we examine the molecule Cc1cc(C)c2c(c1O)C(N)C(c1ccccc1)C2.Cl (stereo not drawn) ; what SMT value has been reported?
Output: 37.6

Input: Request the reported SMT associated with COc1c(C)cc(C)c2c1C(N)C(C)(C)C2.Cl (stereo not drawn)
Output: 39.2

Input: # SMT lookup, item CCCc1cc(CC)c2c(c1O)C(N)CC2.Cl (stereo not drawn)
Output: 116.3

Input: # SMT lookup, item Cc1ccccc1C1Cc2c(C)cc(C)c(O)c2C1N.Cl (stereo not drawn)
Output: 45.9

Input: Look up SMT for this molecule: CN(C)CCCN1c2ccccc2CCc2ccccc21.Cl [IMIPRAMINE HYDROCHLORIDE]
Output: 115.5
